Just for reference, paper PMC3074162 is where these values come from.

Target: T1, ParB 65-139 (RHH domain) (Leifsonia xyli subsp. cynodontis …, UniProt Q6EEF9 65-139)
T1 sequence: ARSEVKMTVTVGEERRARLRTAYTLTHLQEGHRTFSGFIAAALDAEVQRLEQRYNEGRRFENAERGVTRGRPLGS
Assay: ITC
quantity.kind: Kd (nM)
Hi! Could you send only the number? It should be in nM, unit omitted.

Prompt: # input binder: R3-18 (dsDNA) DNA 1: GGAATAGGTGGAAAAGCC DNA 2: GGCTTTTCCACCTATTCC ; wanted: its Kd
Response: 30
